System: OVCAR-8 ovarian
Assay: NCI-60 one-dose screen, 48 h (100 = growth as untreated, 0 = no growth, -100 = all killed)
Conditions: 10 µM
About 83,000 compounds went through this panel and 20% of them were active in at least one assay; those are over-represented in the sample as a whole. Calls of active or inactive are those of the source. Rule for the calls: active = growth percent below 10; inactive = the rest.
recorded endpoint: growth

molecule	result
N#Cc1ccc(C(=O)CSc2nccc(Nc3ccc(C(=O)O)cc3)n2)cc1	106% (inactive)
CC(C)(C)OC(=O)N1CCc2c(sc3ncnc(N/N=C/c4cccc5ccccc45)c23)C1	27.6% (inactive)
COc1ccc2nc(-c3ccc(Cl)cc3)cc(-c3nnc(SC/C(=N\O)c4ccccc4)n3-c3ccccc3)c2c1	82.3% (inactive)
COC1=CC(=O)OC(c2ccc(OC)cc2)C1 (stereo unspecified)	105% (inactive)
O=C(Nc1nc(-c2ccccc2)nc2c1sc(=S)n2-c1ccccc1)C(F)(F)F	86.6% (inactive)
CCN(CC)CCNc1ccc(C)c2sc3cc(Cl)ccc3c(=O)c12	45.9% (inactive)
CN(C)CCOc1ccccc1NC1=C(Cl)C(=O)C(Nc2ccccc2OCCN(C)C)=C(Cl)C1=O	26.6% (inactive)
COc1ccc(C(c2ccc(OCCN(C)C)cc2)c2cc3ccccc3c3ccccc23)cc1 (stereo unspecified)	70.2% (inactive)
CCN(CC)CCOc1cccc2c1C(=O)c1ccccc1C2=O	85.7% (inactive)
COc1cc(/C=C/c2cc(/C=C/c3ccc(O)c(OC)c3)[nH]c(=O)n2)ccc1O	58.7% (inactive)
Oc1ccc(-c2[nH]c3ccccc3c2-c2nc3ccccc3o2)cc1	91.9% (inactive)
COc1cc(-c2nn(-c3ccc(NC(=O)NCCNS(=O)(=O)c4ccc(F)cc4)cc3)cc2-c2ccncc2)ccc1Cl	9.18% (active)
O=C(CI)OCC(COC(=O)CI)OC(=O)CI	97.9% (inactive)
C[C@]12CCC3c4ccc(O)cc4C[C@@H](CCCCCCCCCS(=O)CCCC(F)(F)C(F)(F)F)C3C1CC[C@@H]2O (stereo partly specified)	77.7% (inactive)
CC(=O)C1CCC2C3CC=C4CC(SC(=N)N)CCC4(C)C3CCC12C (stereo unspecified)	30.8% (inactive)
O=C1/C(=C/c2cccc(F)c2)Cc2ccccc21	97.4% (inactive)
C[n+]1c2ccccc2nc2ccccc21	10.3% (inactive)
Nc1ccc(CC[C@H]2CCC/C=C/[C@@H]3C[C@H](O)C[C@H]3[C@H](O)/C=C/C(=O)O2)cc1	2.58% (active)
C#C[C@]1(O)CCC2C3CCc4cc(OC5CCCC5)ccc4C3CC[C@@]21C (stereo partly specified)	81.3% (inactive)
CC(=O)Nc1ccc(CC[C@H]2CCC/C=C/[C@@H]3C[C@H](O)C[C@H]3[C@H](O)/C=C/C(=O)O2)cc1	0.483% (active)
O=C1CC(=O)N(C(=O)c2nn(-c3ccc(Cl)cc3)cc2O)N1	30.1% (inactive)
O=C(O)c1ccc(-n2cc(CNc3ccc(Cl)cc3)c(-c3ccccc3)n2)cc1	98.9% (inactive)
O=C1/C=C/[C@@H](O)[C@@H]2C[C@@H](O)C[C@H]2/C=C/CCC[C@H](CCc2ccc(NC(=S)Nc3ccc4c(c3)C(=O)OC43c4ccc(O)cc4Oc4cc(O)ccc43)cc2)O1	10.5% (inactive)
CSc1ccc(-c2cc(-c3ccc(NC(=O)CCCN4CCCC4)cc3)nc(-c3ccc(NC(=O)CCCN4CCCC4)cc3)c2)cc1	76.4% (inactive)
C/C(=N\O)c1ccc(NC(=O)CSc2nnc(-c3ccccc3)n2-c2ccccc2)cc1	84.7% (inactive)
Clc1nc2ccccc2cc1Cn1nnc(Cc2ccccc2)n1	71.6% (inactive)
c1cncc(-c2csc(-c3c[nH]c4ccccc34)n2)c1	95.8% (inactive)
N#Cc1c(-c2ccc(Cl)cc2)cc(-c2cc(O)ccc2O)nc1N	1.52% (active)
O=C(CCn1cnc2c(cc(-c3ccccc3)n2-c2ccccc2)c1=O)Nc1ccc(F)cc1	54% (inactive)
CC[C@@H](C(=O)[C@H](C)[C@H](O)[C@@H](C)[C@H]1O[C@H]([C@@H](CC)C(=O)N(CC)CC)CC[C@H]1C)C1O[C@]2(C=C[C@@H](O)[C@]3(CC[C@@](C)([C@H]4CC[C@](O)(CC)[C@H](C)O4)O3)O2)[C@H](C)C[C@@H]1C (stereo partly specified)	25.4% (inactive)
COc1ccc(-c2cc(-c3ccc(Cl)cc3)nc(SCCCC(=O)NO)n2)cc1OC	13.5% (inactive)
CN(C)CCCOc1cccc(NC2=C(Cl)C(=O)C(Nc3cccc(OCCCN(C)C)c3)=C(Cl)C2=O)c1	-80.1% (active)
COc1ccc2nc3cc(Cl)ccc3c(N)c2c1	-44.4% (active)
Cc1nn(-c2ccccc2)c2nc(Cl)c(C=O)c(-c3ccccc3)c12	99.9% (inactive)
Cc1ccc(/C=C/C(=O)C(=O)/C=C/c2ccc(C)cc2)cc1	109% (inactive)
C=CCN(CC=C)C(=O)[C@H](CC)[C@@H]1CC[C@@H](C)[C@@H]([C@H](C)[C@@H](O)[C@@H](C)C(=O)[C@H](CC)C2O[C@]3(C=CC(=O)[C@]4(CC[C@@](C)([C@H]5CC[C@](O)(CC)[C@H](C)O5)O4)O3)[C@H](C)C[C@@H]2C)O1 (stereo partly specified)	32.4% (inactive)

// data source = PubChem BioAssay (NCI)
